pIC50: −log10 of the molar value.
// values below are pIC50; system is CypD (Homo sapiens (Human), UniProt P30405)
Sequence (P30405 30-207): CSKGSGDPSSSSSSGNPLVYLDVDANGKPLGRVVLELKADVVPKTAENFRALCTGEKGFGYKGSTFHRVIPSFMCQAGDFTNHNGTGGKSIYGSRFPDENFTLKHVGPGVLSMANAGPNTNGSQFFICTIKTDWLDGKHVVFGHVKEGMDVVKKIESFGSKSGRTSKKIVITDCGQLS

# COMPOUND, pIC50
rows = [
    ("Nc1ccc(CNC(=O)CN2C(=O)C3C4CCC(O4)C3C2=O)cc1 (stereo not drawn)", "3.70 to 5.00"),
    ("CCC1Oc2cc(C(C)NC(=O)CN3C(=O)[C@@H]4[C@@H]5CC[C@@H](C5)[C@@H]4C3=O)ccc2NC1=O (stereo partly drawn)", "3.70 to 5.00"),
    ("Nc1ccc(CCNC(=O)CN2C(=O)[C@@H]3[C@@H]4CC[C@@H](C4)[C@@H]3C2=O)cc1", "3.70 to 5.00"),
]
